This section presents compounds with their documented molar heat capacity at constant pressure values.
Test: molar heat capacity at constant pressure
Details: 318.65 K; 101.33 kPa; Liquid; Small sample (50 mg) DSC
Give a bare numeral; the unit J/K/mol is implied.

* OCCCCCO | 247.59

Noted for OCCCCCCO : its molar heat capacity at constant pressure reads 282.66

---

Assay: molar heat capacity at constant pressure
Details: 315.65 K; 101.33 kPa; Liquid; Small sample (50 mg) DSC
Measured Endpoint: molar heat capacity at constant pressure (J/K/mol)
Give a bare numeral; the unit J/K/mol is implied.

Worked cases, molar heat capacity at constant pressure given:
• OCCCCO = 213.36
• OCCCO = 184.24
• OCCCCCO = 245.28
• OCCCCCCCO = 313.33

Query compound follows.
Noted for OCCO : its molar heat capacity at constant pressure reads 155.27

---

This section presents molecules with their documented molar heat capacity at constant pressure values.
Assay: molar heat capacity at constant pressure
Conditions: 347.15 K; 101.33 kPa; Liquid; Small sample (50 mg) DSC
Give a bare numeral; the unit J/K/mol is implied.

Worked cases, molar heat capacity at constant pressure given:
- OCCCCO: 233.32
- OCCCO: 199.85
- OCCCCCCCCCO: 428.77
- OCCCCCCO: 311.88
- OCCCCCO: 271.13
- OCCCCCCCCO: 388.48
- OCCO: 165.38

Noted for OCCCCCCCO : its molar heat capacity at constant pressure reads 347.37

---

Experiment: molar heat capacity at constant pressure
Conditions: 324.65 K; 101.33 kPa; Liquid; Small sample (50 mg) DSC
Could you mark each record T if its molar heat capacity at constant pressure falls strictly under 300 J/K/mol, and F if it equals or exceeds it?

Query: Take the compound OCCCCCO [1,5-pentanediol] and say whether its molar heat capacity at constant pressure is less than 300 J/K/mol.
Response: T

---

Assay: molar heat capacity at constant pressure
Conditions: 311.15 K; 101.33 kPa; Liquid; Small sample (50 mg) DSC
Measured Endpoint: molar heat capacity at constant pressure (J/K/mol)
Give a bare numeral; the unit J/K/mol is implied.

Worked cases, molar heat capacity at constant pressure given:
* OCCCO | 182.05
* OCCCCCO | 241.89

Noted for OCCO : its molar heat capacity at constant pressure reads 153.83

Noted for OCCCCCCCO : its molar heat capacity at constant pressure reads 308.87

Noted for OCCCCO : its molar heat capacity at constant pressure reads 210.7

---

This section presents compounds with their documented molar heat capacity at constant pressure values.
Experiment: molar heat capacity at constant pressure
Details: 320.15 K; 101.33 kPa; Liquid; Small sample (50 mg) DSC
Give a bare numeral; the unit J/K/mol is implied.

• OCCCCO [1,4-butanediol] = 216.08

Noted for OCCCCCO [1,5-pentanediol] : its molar heat capacity at constant pressure reads 248.76

Noted for OCCCCCCCO [1,7-heptanediol] : its molar heat capacity at constant pressure reads 317.88

Noted for OCCCO [propan-1,3-diol] : its molar heat capacity at constant pressure reads 186.44

---

This section presents compounds with their documented molar heat capacity at constant pressure values.
Assay: molar heat capacity at constant pressure
Conditions: 321.65 K; 101.33 kPa; Liquid; Small sample (50 mg) DSC
Give a bare numeral; the unit J/K/mol is implied.

- OCCCCCCCO: 319.43
- OCCO: 157.19
- OCCCO: 187.17
- OCCCCCCO: 285.84
- OCCCCCCCCCO: 393.27
- OCCCCO: 216.99

Query compound follows.
Noted for OCCCCCO : its molar heat capacity at constant pressure reads 249.93

---

Test: molar heat capacity at constant pressure
Conditions: 312.65 K; 101.33 kPa; Liquid; Small sample (50 mg) DSC
Measured Endpoint: molar heat capacity at constant pressure (J/K/mol)
Give a bare numeral; the unit J/K/mol is implied.

Worked cases, molar heat capacity at constant pressure given:
* OCCCCCCCO | 310.34
* OCCCCCO | 243.01
* OCCCCO | 211.58
* OCCO | 154.31

Query molecule follows.
Noted for OCCCO : its molar heat capacity at constant pressure reads 182.78

---

Assay: molar heat capacity at constant pressure
Details: 308.15 K; 101.33 kPa; Liquid; Small sample (50 mg) DSC
Entry flag: 1 (yes) if molar heat capacity at constant pressure reaches 200 J/K/mol; 0 (no) if it does not.

# count of solved cases: 2
• OCCO [1,2-ethanediol] = 0 (no)
• OCCCO [propan-1,3-diol] = 0 (no)

Query: hey, is molar heat capacity at constant pressure for this one >= 200 J/K/mol? OCCCCO [1,4-butanediol]
Response: 1 (yes)

Query: hey, is molar heat capacity at constant pressure for this one >= 200 J/K/mol? OCCCCCO [1,5-pentanediol]
Response: 1 (yes)

Query: hey, is molar heat capacity at constant pressure for this one >= 200 J/K/mol? OCCCCCCCO [1,7-heptanediol]
Response: 1 (yes)

---

Assay: molar heat capacity at constant pressure
Settings: 302.15 K; 101.33 kPa; Liquid; Small sample (50 mg) DSC
Entry flag: Fulfilled if molar heat capacity at constant pressure reaches 200 J/K/mol; Not fulfilled if it does not.

# count of solved cases: 3
* OCCCCCCCO [1,7-heptanediol] | Fulfilled
* OCCCCCO [1,5-pentanediol] | Fulfilled
* OCCCO [propan-1,3-diol] | Not fulfilled

Please find the next compound below.
Query: hey, is molar heat capacity at constant pressure for this one >= 200 J/K/mol? OCCO [1,2-ethanediol]
Response: Not fulfilled

---

Assay: molar heat capacity at constant pressure
Conditions: 348.65 K; 101.33 kPa; Liquid; Small sample (50 mg) DSC
Numbers after ± are expanded uncertainties.
Measured Endpoint: molar heat capacity at constant pressure
Quick note: unit goes after the number.

Worked cases, molar heat capacity at constant pressure given:
• OCCCCO = 234.32 ± 3.6 J/K/mol
• OCCCCCCO = 313.36 ± 4.8 J/K/mol
• OCCCO = 200.61 ± 3.1 J/K/mol
• OCCCCCCCCO = 390.4 ± 6 J/K/mol
• OCCCCCCCO = 349.11 ± 5.4 J/K/mol

Noted for OCCO : its molar heat capacity at constant pressure reads 165.86 ± 2.6 J/K/mol

Noted for OCCCCCCCCCO : its molar heat capacity at constant pressure reads 430.82 ± 6.7 J/K/mol

Noted for OCCCCCO : its molar heat capacity at constant pressure reads 272.45 ± 4.2 J/K/mol

---

Assay: molar heat capacity at constant pressure
Settings: 306.65 K; 101.33 kPa; Liquid; Small sample (50 mg) DSC
Entry flag: Y if molar heat capacity at constant pressure reaches 200 J/K/mol; N if it does not.

# count of solved cases: 4
- OCCCCO: Y
- OCCO: N
- OCCCO: N
- OCCCCCCCO: Y

Query: hey, is molar heat capacity at constant pressure for this one >= 200 J/K/mol? OCCCCCO
Response: Y

---

Test: molar heat capacity at constant pressure
Details: 342.65 K; 101.33 kPa; Liquid; Small sample (50 mg) DSC
Could you mark each record 1.0 if its molar heat capacity at constant pressure falls strictly under 300 J/K/mol, and 0.0 if it equals or exceeds it?

# count of solved cases: 5
• OCCCO = 1.0
• OCCCCCCCCO = 0.0
• OCCO = 1.0
• OCCCCCCCCCO = 0.0
• OCCCCCCCO = 0.0

Query: Take the compound OCCCCO and say whether its molar heat capacity at constant pressure is less than 300 J/K/mol.
Response: 1.0

Query: Take the compound OCCCCCO and say whether its molar heat capacity at constant pressure is less than 300 J/K/mol.
Response: 1.0

---

Assay: molar heat capacity at constant pressure
Conditions: 297.65 K; 101.33 kPa; Liquid; Small sample (50 mg) DSC
± gives the expanded uncertainty stated by the source.
This section presents molecules with their documented molar heat capacity at constant pressure values.

* OCCCCCO | 232.14 ± 3.6 J/K/mol
* OCCCCO | 202.99 ± 3.1 J/K/mol
* OCCCCCCCO | 296.11 ± 4.6 J/K/mol
* OCCCO | 175.54 ± 2.7 J/K/mol

Noted for OCCO : its molar heat capacity at constant pressure reads 149.53 ± 2.3 J/K/mol

---

Experiment: molar heat capacity at constant pressure
Conditions: 303.65 K; 101.33 kPa; Liquid; Small sample (50 mg) DSC
Could you mark each record T if its molar heat capacity at constant pressure falls strictly under 200 J/K/mol, and F if it equals or exceeds it?

Query: Take the compound OCCO and say whether its molar heat capacity at constant pressure is less than 200 J/K/mol.
Response: T

---

This section presents compounds with their documented molar heat capacity at constant pressure values.
Assay: molar heat capacity at constant pressure
Conditions: 351.65 K; 101.33 kPa; Liquid; Small sample (50 mg) DSC
Give a bare numeral; the unit J/K/mol is implied.

• OCCCCCO [1,5-pentanediol] = 275.12
• OCCO [1,2-ethanediol] = 166.83
• OCCCCCCCCCO [1,9-nonanediol] = 434.92

Noted for OCCCCCCCO [1,7-heptanediol] : its molar heat capacity at constant pressure reads 352.64

Noted for OCCCCO [1,4-butanediol] : its molar heat capacity at constant pressure reads 236.35

Noted for OCCCO [propan-1,3-diol] : its molar heat capacity at constant pressure reads 202.13

Noted for OCCCCCCO [1,6-hexanediol] : its molar heat capacity at constant pressure reads 316.31

Noted for OCCCCCCCCO [1,8-octanediol] : its molar heat capacity at constant pressure reads 394.24
